- Test Target: six-subunit PRC2 (EZH2-EED-SUZ12-RBAP48-AEBP2-JARID2) (UniProt Q15910-2;O75530;Q15022;Q09028;Q6ZN18-2;Q92833 …)
- Procedure Summary: EMSA; 100 mM KCl; EMSA: 50 mM Tris-HCl pH 7.5 (25 C), 100 mM KCl (or LiCl), 2.5 mM MgCl2, 0.1 mM ZnCl2, 2 mM 2-mercaptoethanol, 0.05 mg/ml BSA, 0.05 mg/ml yeast tRNA, 5% glycerol, 30 C 30 min
- Experimental Setup: protein: recombinant; tags: His (EZH2), Strep-GFP (AEBP2, JARID2); TEV treated; AEBP2 retains 7 extra N-terminal aa; copies: 1;1;1;1;1;1; label: 32P 5' (EMSA); single intramolecular G4 in K+
Property Measured: pKd
Convention used: pKd is expressed as -log10 of the molar concentration.

Prompt line: Endpoint output: pKd of AAAAAAAAAAGAGAGAGAUUAGGGUUAGGGUUAGGGUUAGGGAGAGAGAG (structured_RNA) [TERRA] . Value?
Response line: 7.74
